- target-system: Stb4 (UniProt P50104)
- Sequence (P50104 whole entry): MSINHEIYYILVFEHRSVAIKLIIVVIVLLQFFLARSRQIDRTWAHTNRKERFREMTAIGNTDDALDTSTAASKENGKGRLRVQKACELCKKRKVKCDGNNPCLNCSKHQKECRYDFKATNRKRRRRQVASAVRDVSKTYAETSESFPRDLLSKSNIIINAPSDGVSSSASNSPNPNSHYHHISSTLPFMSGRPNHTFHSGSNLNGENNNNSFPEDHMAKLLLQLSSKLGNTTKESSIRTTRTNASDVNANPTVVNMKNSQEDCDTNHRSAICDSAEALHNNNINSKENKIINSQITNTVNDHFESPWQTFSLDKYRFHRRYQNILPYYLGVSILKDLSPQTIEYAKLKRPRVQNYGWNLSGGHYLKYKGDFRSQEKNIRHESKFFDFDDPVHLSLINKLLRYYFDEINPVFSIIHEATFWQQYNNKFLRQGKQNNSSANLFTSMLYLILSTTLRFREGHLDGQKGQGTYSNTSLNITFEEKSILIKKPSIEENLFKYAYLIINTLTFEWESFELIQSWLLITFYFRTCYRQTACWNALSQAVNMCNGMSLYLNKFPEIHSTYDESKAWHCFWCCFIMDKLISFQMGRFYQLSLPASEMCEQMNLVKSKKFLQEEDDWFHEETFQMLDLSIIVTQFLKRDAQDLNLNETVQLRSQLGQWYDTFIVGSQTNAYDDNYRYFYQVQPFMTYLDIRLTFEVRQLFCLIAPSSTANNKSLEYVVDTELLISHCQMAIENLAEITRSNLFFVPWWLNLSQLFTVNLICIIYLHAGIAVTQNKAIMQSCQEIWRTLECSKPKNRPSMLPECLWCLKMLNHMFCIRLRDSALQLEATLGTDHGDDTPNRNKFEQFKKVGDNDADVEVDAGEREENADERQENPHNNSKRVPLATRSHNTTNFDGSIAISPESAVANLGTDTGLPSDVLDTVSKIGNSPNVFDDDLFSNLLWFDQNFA
- method-description: PBM E-score (8-mer binding enrichment) (E-score (-0.5 to 0.5)); higher = stronger / more preferred TF binding
- condition-summary: protein concentration: 200 nM; construct: GST-DNA-binding domain
Over roughly 33,000 sequences, “E-score (-0.5 to 0.5)” has its median near -0.056; the highest 2% begin near 0.38. This excerpt belongs to a sample that is enriched for the highest values.

input-sequence: AGCTCACA
PBM E-score: -0.192

input-sequence: CGGTAAAA
PBM E-score: 0.346

input-sequence: CCACCGCG
PBM E-score: -0.00158

input-sequence: CGCCGAAC
PBM E-score: 0.366

input-sequence: ATGGTTTG
PBM E-score: 0.117

input-sequence: CGGATCGA
PBM E-score: 0.404

input-sequence: ATGCGGGG
PBM E-score: 0.0133

input-sequence: AGACGGAC
PBM E-score: -0.0259

input-sequence: AGGTCCCG
PBM E-score: 0.325

input-sequence: GTTTCGAA
PBM E-score: -0.145

input-sequence: TACCGAAA
PBM E-score: 0.385

input-sequence: TCCAACCA
PBM E-score: -0.117

input-sequence: AGACGAAG
PBM E-score: -0.0901

input-sequence: CGGAAGCC
PBM E-score: 0.41

input-sequence: CTAAGTCA
PBM E-score: -0.0795

input-sequence: AGCCGTAT
PBM E-score: 0.0974

input-sequence: CAGGCTCG
PBM E-score: 0.08

input-sequence: AGAGGATG
PBM E-score: -0.0042

input-sequence: CACCGAAA
PBM E-score: 0.201

input-sequence: CGATGGTC
PBM E-score: -0.158

input-sequence: CGGAAGGC
PBM E-score: 0.373

input-sequence: AGGGCTCA
PBM E-score: -0.326

input-sequence: CCCGAAGG
PBM E-score: 0.394

input-sequence: CCCGAAGA
PBM E-score: 0.403

input-sequence: ACGCTCAT
PBM E-score: -0.276

input-sequence: AGGAAGCC
PBM E-score: 0.0867

input-sequence: AGCCGAAG
PBM E-score: 0.391

input-sequence: GGCCGAAC
PBM E-score: 0.313

input-sequence: CGCCGAAG
PBM E-score: 0.372

input-sequence: CCGAGATC
PBM E-score: 0.435

input-sequence: TCCGAAGA
PBM E-score: 0.458

input-sequence: AACTGAAA
PBM E-score: -0.121

input-sequence: CGGATCAG
PBM E-score: 0.33

input-sequence: AGGGTGTA
PBM E-score: -0.093

input-sequence: CGCGAAGA
PBM E-score: 0.112

input-sequence: ACGAGATA
PBM E-score: -0.184

input-sequence: AGCCGACT
PBM E-score: 0.261

input-sequence: GCGGGTCA
PBM E-score: 0.0978

input-sequence: ACCCGTTA
PBM E-score: 0.269

input-sequence: AGCCGAAT
PBM E-score: 0.426

input-sequence: GTTTCGTA
PBM E-score: 0.128

input-sequence: AGCCGAAC
PBM E-score: 0.411

input-sequence: AAGGTAGG
PBM E-score: -0.0211

input-sequence: CGACTCAC
PBM E-score: 0.0516
